target under test: HLA-A*32:01
assay protocol: IEDB peptide-MHC binding, purified MHC/competitive/radioactivity; filed as Kd, often an IC50 or EC50 that approximates it; bounds were set here for any values at or beyond the usual limits of such assays
settings: source organism: Dengue virus 3 Singapore/8120/1995
reported endpoint: pKd
pKd is a log-scale quantity: -log10 of the concentration expressed in molar.

Q. Tell me pKd reported for `MLWMADVPL`
A. 7.54

###

target under test: HLA-A*11:01
assay protocol: IEDB peptide-MHC binding, purified MHC/competitive/radioactivity; filed as Kd, often an IC50 or EC50 that approximates it; bounds were set here for any values at or beyond the usual limits of such assays
settings: source organism: Vaccinia virus WR
reported endpoint: Kd (nM)
Return type: number; implicit unit nM.

Q. Tell me Kd reported for `VTRKCPQKK`
A. 61.5

Q. Tell me Kd reported for `SSMTIREFPR`
A. 5.47

Now turn to the next sequence.
Q. Tell me Kd reported for `SSLRREHIK`
A. 270
